Reported EC50 is given for each of the following compounds.
- ASSAY_TEXT: Tested for 5-hydroxytryptamine 1D like receptor-mediated vascular effect in rabbit saphenous vein (RSV)
MEASURED_PROPERTY: EC50 (nM)

[[record]]
smiles_code = "Cc1cc(C(C)(C)C)ccc1CC1=NCCN1"
comparator = "="
measured_number = 1670

[[record]]
smiles_code = "Cc1cc(C)c(CC2=NCCN2)c(C)c1"
comparator = "="
measured_number = 150

[[record]]
smiles_code = "Cc1cc(C(C)C)cc(C)c1CC1=NCCN1"
comparator = "="
measured_number = 138

[[record]]
smiles_code = "CC(C)(C)c1ccc(CC2=NCCN2)cc1"
comparator = ">"
measured_number = 10000


Sourced from ChEMBL document CHEMBL1131255
